Test: CPHEA_Stoker_NIS_Cytotoxicity: Cytotoxicity Assessment for CPHEA's Radioactive Iodide Uptake (RAIU) Assay for Sodium/Iodide Symporter (NIS) Inhibition, Stoker and Laws Labs (AID 2283897)
Active and inactive are the calls of the source. How the source made its calls: active means hit-call score of the fitted dose curve at least 0.9, where 1 is the maximum; inconclusive means response in the unintended direction; inactive means score below 0.9.
Respond only with the outcome that fits, drawn from T = active, F = inactive

See these solved cases before continuing.
> print(dat)
                                   compound  labelvalue
1  CCCCOC(=O)C(C)Oc1ccc(Oc2ccc(C(F)(F)F)cn2)cc1 (configuration not stated)           F
2             CC(C)(c1ccc(O)cc1)c1ccc(O)cc1           F

// next entry
Request: // param item: CCOC(=O)C(C)Oc1ccc(Oc2nc3ccc(Cl)cc3o2)cc1 (configuration not stated) ; yields the recorded call
Response: F

----------
Read-out: Interferon-gamma inducible Protein 10 (IP10), CXCL10 (gene 3627)
Experiment: BSK_KF3CT_IP10: BioMAP Diversity Plus: KF3CT Assay for Interferon-gamma inducible Protein 10 (IP10) Biomarker Activity (AID 2283068)
Conditions: primary human keratinocytes with fibroblasts; actives raise or lower the signal
Active and inactive are the calls of the source. How the source made its calls: active means hit-call score of the fitted dose curve at least 0.9, where 1 is the maximum; inactive means score below 0.9.
Respond only with the outcome that fits, drawn from True = active, False = inactive

See these solved cases before continuing.
> print(dat)
                                   molecule  labelvalue
1  C#C[C@]1(O)CC[C@H]2[C@@H]3CCC4=CC(=O)CC[C@@H]4[C@H]3CC[C@@]21CC       False
2              CCCOC(=O)c1ccc(C(=O)OCCC)nc1       False
3  CC(=O)S[C@@H]1CC2=CC(=O)CC[C@]2(C)[C@H]2CC[C@@]3(C)[C@@H](CC[C@@]34CCC(=O)O4)[C@H]12        True
4  COC(=O)c1cccc(C)c1S(=O)(=O)NC(=O)Nc1nc(OCC(F)(F)F)nc(N(C)C)n1       False
5  S=C(S)NCCNC(=S)S.[Mn+2].[S-]C([S-])=NCCN=C([S-])[S-].[Zn+2]       False

Request: // param item: O=C(O)c1ccccc1 ; yields the recorded call
Response: False

Request: // param item: CCCOC(=O)NCCCN(C)C ; yields the recorded call
Response: False

Request: // param item: C[C@]12CC[C@@H]3c4ccc(O)cc4C[C@@H](CCCCCCCCCS(=O)CCCC(F)(F)C(F)(F)F)[C@H]3[C@@H]1CC[C@@H]2O (stereo partly specified) ; yields the recorded call
Response: False

Request: // param item: CCCCCCC(C)OC(=O)COc1nc(F)c(Cl)c(N)c1Cl (stereo unspecified) ; yields the recorded call
Response: False

Request: // param item: CCNc1nc(N)nc(Cl)n1 ; yields the recorded call
Response: False

----------
Target: Bile acid receptor (Homo sapiens)
Experiment: ATG_FXR_TRANS: Attagene TRANS-FACTORIAL HepG2 Assay for Farnesoid X Receptor (FXR) (AID 2282979);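 further: hits raise reporter mRNA above DMSO so AC50 marks FXR activation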
Settings: HepG2 Attagene TRANS FXR-GAL4 reporter transcription
Inconclusive results are not listed. Activity calls are given as the source filed them. The calls were made as follows: active = hit-call score of the fitted dose curve at least 0.9, where 1 is the maximum; inconclusive = response in the unintended direction; inactive = score below 0.9.
reportedEndpoint: outcome

Known outcome results, listed for orientation:
> print(dat)
                                   compound  reportedendpoint  assayvalue
1  COC(=O)CSc1cc(N=c2sc(=O)n3n2CCCC3)c(F)cc1Cl           outcome    inactive
2  C[C@]12C[C@H](O)[C@H]3[C@@H](CCC4=CC(=O)CC[C@@]43C)[C@@H]1CC[C@@H]2C(=O)CO           outcome    inactive
3             O=C(c1ccc(O)cc1O)c1ccc(O)cc1O           outcome    inactive
4  CCCCOC(=O)[C@@H](C)Oc1ccc(Oc2ccc(C(F)(F)F)cn2)cc1           outcome    inactive
5      Oc1ccc(C(c2ccc(O)cc2)C(Cl)(Cl)Cl)cc1           outcome    inactive

Could you tell me outcome for each of these compounds? They are listed below.
1. CCCCOCCOCCOCc1cc2c(cc1CCC)OCO2
2. COc1nc(C)nc(NC(=O)NS(=O)(=O)c2ccccc2OCCCl)n1
3. C[C@]12CC[C@@H]3c4ccc(O)cc4C[C@@H](CCCCCCCCCS(=O)CCCC(F)(F)C(F)(F)F)[C@H]3[C@@H]1CC[C@@H]2O (stereo partly specified)

Response:
inactive
inactive
inactive

Could you tell me outcome for each of these compounds? They are listed below.
1. CCOC(=O)c1ccc(O)cc1
2. O=C(O)C1(C(=O)Nc2ccc(Cl)cc2Cl)CC1
3. OB(O)O

Response:
["inactive", "inactive", "inactive"]
